System: Mycobacterium tuberculosis
assayProcedure: Antimycobacterial activity against Mycobacterium bovis BCG after 6 days by Microdilution Resazurin assay
Assay type: functional
experimentalParameters: variant bovis BCG, 144 h
measuredEndpoint: MIC95

Study these solved cases before continuing.
**Q:** Please look up its MIC95: `CC1(C)C=Cc2c(ccc3c2oc2ccc4c(c23)C=CC(C)(C)O4)O1`
**A:** > 300 µM

**Q:** I would be grateful if you could share the reported MIC95 for `CC1(C)C=Cc2c(ccc3oc4c(Cl)cccc4c23)O1` .
**A:** > 350 µM

**Q:** Name the recorded MIC95 for `CC1(C)C=Cc2c(ccc3oc4cccc(Cl)c4c23)O1` .
**A:** > 350 µM

**Q:** What measured MIC95 goes with `COc1ccc2c(c1)oc1ccc3c(c12)C=CC(C)(C)O3` ?
**A:** > 360 µM

**Q:** Bench note: what MIC95 did `CC1(C)C=Cc2c(ccc3oc4cc(-c5ccc6c(c5)oc5ccc7c(c56)C=CC(C)(C)O7)ccc4c23)O1` show?
**A:** > 200 µM

**Q:** Tell me the measured MIC95 of `CC1(C)C=Cc2c(ccc3oc4cc(Br)ccc4c23)O1` , please.
**A:** 150 µM

**Q:** Please look up its MIC95: `CC(=O)c1ccc2oc3ccc4c(c3c2c1)CCC(C)(C)O4`
**A:** > 340 µM

**Q:** What MIC95 value was documented for this molecule, `CC1(C)C=Cc2c(ccc3oc4ccc(O)cc4c23)O1` ?
**A:** 79 µM

Let us examine a further case.
**Q:** I am curious: what MIC95 value has been reported for `CC1(C)C=Cc2c(ccc3oc4ccccc4c23)O1` ?
**A:** 100 µM
